Sourced from PubChem BioAssay (NCI)

# Tested on: HCC-2998 colon
# EXPERIMENT_DESCRIPTION: NCI tumour cell line growth inhibition, 48 h
READOUT: TGI

Request - read-out TGI | tested on HCC-2998 colon | compound CC[C@H]1C=CCC[C@@]2(C[C@@H]3CC[C@H]4[C@@H](C(=O)OCCCCCCCCCCCCCCCC(=O)N(CCCNC(C)=O)C[C@H](CCNC(C)=O)OC(C)=O)[C@@]5(CCC[C@@H](C)O5)NC(=[N+]34)N2)O1
2.62 µM

// query: COc1cc(/C=C2\CC(C)C/C(=C\c3ccc(O)c(OC)c3)C2=O)ccc1O (centres undefined)
12.5 µM

Again, but for O=C1c2ccccc2C(=O)c2sc(Nc3ccc(Cl)cc3)nc21
7.43 µM

Consider next the compound CCCCCCCCc1ccc(CCC(N)(CO)CO)cc1 in the same way.
2.96 µM

// query: COc1cccc2c1C(=O)c1c(O)c3c(c(O)c1C2=O)C[C@@](O)(C(C)=O)C[C@@H]3OC1CC(O)C(O)C(C)O1 (some centres undefined)
12.8 µM

Also check C=C1C(=O)OC2/C=C(\C)CC/C=C(\C)CC(OC(=O)/C(=C/CO)CO)[C@@H]12 (some centres undefined)
33.5 µM

Try C=C1C(=O)O[C@H]2[C@H]1CC/C(COC(=O)C(=O)c1c[nH]c3ccc(Cl)cc13)=C\CC[C@@]1(C)O[C@@H]21 next.
3.36 µM

What would you report for COc1cccc(N2C(=O)C3c4[nH]c5ccc(C)cc5c4C4CCC(C)CC4C3C2=O)c1 (centres undefined) ?
> 100 µM

How about COc1ccc(C2CC(c3cccc(OC)c3)=NN2C(=O)c2cc(OC)c(OC)c(OC)c2)cc1 (centres undefined) ?
> 100 µM

Note, next up: CNC(=O)OCc1nc(N=[N+]=[N-])n(C)c1COC(=O)NC
> 100 µM

And CCN(CC)c1ccc2cc(-c3csc(C)n3)c(=O)oc2c1 ?
> 100 µM

Similarly, COc1ccc(OC2OC(CO)C(O)C(O)C2O)cc1 (centres undefined) ?
> 100 µM

And the next one, O=c1[nH]c2cc3[nH]c(=O)c(=O)[nH]c3cc2[nH]c1=O ?
> 100 µM

Thanks! And O=C1O/C(=C(/Cl)c2c3ccccc3cc3ccccc23)c2ccccc21 ?
> 100 µM

Would you kindly repeat that for CC(C)(C)OC(=O)NCC(=O)N(CCc1ccc(Cl)c(Cl)c1)CCN1CCCC1 ?
16.2 µM

Entry O=C(c1ccccc1)c1ccc(O)c2ncccc12 please
41.1 µM

Record: CC1=NN(C(=O)CC(=O)Nc2ccc(Cl)cc2)C(=O)C1N=Nc1ccc(S(=O)(=O)c2ccc(N=NC3C(=O)N(C(=O)CC(=O)Nc4ccc(Cl)cc4)N=C3C)cc2)cc1 (centres undefined)
> 100 µM

Check Oc1ccc2ccccc2c1NCn1nc(CCCCCCCCc2nn(CNc3c(O)ccc4ccccc34)c(=S)o2)oc1=S too.
> 100 µM

Same read-out for C=C(C)CCN(C(=O)OC(C)(C)C)c1cc(C(C)C)co1 ?
> 100 µM

---

Kindly state TGI for each of the entries shown.
# Tested on: LOX IMVI melanoma
# EXPERIMENT_DESCRIPTION: NCI tumour cell line growth inhibition, 48 h

# lookup: TGI of N#Cc1nc(-c2ccc(-c3nc(C#N)c(N)o3)cc2)oc1N
> 10 µM

Again, but for COc1ccc(C(c2cc(OC)c(OC)c(OC)c2)N2C(=O)CCC2C(=O)O)cc1 (stereo not given)
> 100 µM

Cool, now O=[N+]([O-])c1ccc2nc3ccscc-3c2c1
85.9 µM

Same again, this time with COC(=O)[C@@H]1[C@H](O)[C@H](C)[C@H](O)[C@H](C)/C=C\C=C(C)C(=O)Nc2c(C)c(OC(C)=O)c3c(c2O)C(=O)C(C)=C2OCOC(=C23)C(C)=C[C@@](C)(O)[C@H](O)[C@@H](C)[C@H]1OC(C)=O
> 100 µM

# iterate: O=C1CC2(CCNCC2)C(=O)N1N1CCCCC1
> 100 µM

What do you have for O=C1O/C(=C(/Cl)c2c3ccccc3cc3ccccc23)c2ccccc21 ?
8.04 µM

Item: Oc1ccccc1-c1n[nH]c(-c2ccccc2O)n1
> 100 µM

Another compound to look at: C[n+]1cc2cc3c(cc2c2ccccc21)OCO3
53.8 µM

And C/C(=C(/C)c1cc[n+](C)cc1)c1cc[n+](C)cc1 ?
> 75 µM

Next compound: O=c1[nH]c2cc3[nH]c(=O)c(=O)[nH]c3cc2[nH]c1=O
> 100 µM

---

# Test system: SNB-75 CNS
# EXPERIMENT_DESCRIPTION: NCI tumour cell line growth inhibition, 48 h
What TGI was measured for each of the following?
Numbers only here, please. The scale is µM.

What value of TGI has been reported for the following compound? O=C(Nc1ccccc1[N+](=O)[O-])C(=O)C(C(=O)c1ccccc1-c1ccccc1)C1OC(=O)c2ccccc21 (centres undefined)
53.4

Proceed to Oc1cc2c(cc1C(c1ccc3c(c1)OCO3)N1CCN(C(c3ccc4c(c3)OCO4)c3cc4c(cc3O)OCO4)CC1)OCO2 (centres undefined)
13.7

Check O=S(=O)([O-])[O-].[Fe+2].[OH2+]c1c(Cl)cc(Cl)cc1/C=N/Nc1ccccn1 too.
1.64

Try O=C(/C=C/c1ccc(O)cc1)c1cc(-c2cc(CCC(=O)c3ccc(O)cc3O)ccc2O)c(O)cc1O next.
41.7

---

Task for the reader: assign each of the following compounds its reported TGI.
# System: HOP-62 NSCLC
# EXPERIMENT_DESCRIPTION: NCI tumour cell line growth inhibition, 48 h

Which measured TGI value corresponds to COc1cc(/C=C2\C(=O)N(c3ccc(NC(C)=O)cc3)C(c3ccccc3)S2(=O)=O)cc(OC)c1OC (centres undefined) ?
> 100 µM

Would you kindly repeat that for O=C(/C=C/c1ccc(O)cc1)c1cc(-c2cc(CCC(=O)c3ccc(O)cc3O)ccc2O)c(O)cc1O ?
> 50 µM

Query O=C1OC(C2Cc3ccc4c(c3C2=O)CCCC4)c2ccccc21 (centres undefined) next
> 100 µM

And for Nc1cc(N)cc(Cc2ccccc2)c1 ?
> 100 µM

Then this compound: C[CH2][Ge]([CH2]C)([CH2]C)[O]C(=O)C([O][Ge]([CH2]C)([CH2]C)[CH2]C)c1ccccc1 (centres undefined)
42.8 µM

// same read-out, input: Oc1ccccc1-c1n[nH]c(-c2ccccc2O)n1
> 100 µM

Consider next the compound O=C(/C=C/c1ccccc1Br)c1ccccc1 in the same way.
26.2 µM

Ok, now CNC12C3C4C1C1C2C3C41C(=O)N[C@H](C(=O)N(C)[C@H](C[C@@H](OC(C)=O)c1nc(C(=O)N[C@@H](Cc2ccccc2)C[C@H](C)C(=O)OC)cs1)C(C)C)C1CC1 (some centres undefined)
> 15 µM

Now give it for CC1(C)CC2C(/C1=N/O)C1(C)CCCC2(C)C1O (centres undefined) too.
> 100 µM

---

# System: T-47D breast
# EXPERIMENT_DESCRIPTION: NCI tumour cell line growth inhibition, 48 h
Please respond with reported TGI for every item in the list.

// query TGI value for entry N=C(N)SCCN1CCCCC1
85.6 µM

Okay, and COc1cc(OC)c2nc(C)c3c(c2c1)OCC3 ?
> 100 µM

Then this compound: CCCCCCCCc1ccc(CCC(N)(CO)CO)cc1
3.44 µM

Quick one: CC1(Cc2cc3c(cc2C2(c4ccc([N+](=O)[O-])cc4)OCCO2)OCO3)OCCO1
> 100 µM

Now try COc1ccc(C2CC(c3cccc(OC)c3)=NN2C(=O)c2cc(OC)c(OC)c(OC)c2)cc1 (stereo not given) .
> 100 µM

Follow-up item: CCOc1ccc(NC(=O)c2cc3ccccc3cc2O)cc1
> 100 µM

Lookup C=C1C(=O)O[C@H]2[C@H]1CC/C(COC(=O)C(=O)c1c[nH]c3ccc(Cl)cc13)=C\CC[C@@]1(C)O[C@@H]21
3.77 µM

Moving on to C=CC[C@@]12CCC(=O)C=C1CCCC2=O
> 100 µM

Param item: COc1ccc(OC2OC(CO)C(O)C(O)C2O)cc1 (stereo not given)
> 100 µM

Repeat for the following compound: COc1ccc(C(c2cc(OC)c(OC)c(OC)c2)N2C(=O)CCC2C(=O)O)cc1 (stereo not given)
> 100 µM

Item: [O-]/[N+](=N/c1ncc(-c2ccccc2)cn1)c1ncc(-c2ccccc2)cn1
> 100 µM

Here is the next compound: CC1(C)CC2C(/C1=N/O)C1(C)CCCC2(C)C1O (stereo not given)
> 100 µM

Please give the result for c1ccc2c(-c3cnn4cc(-c5ccc(N6CCNCC6)cc5)cnc34)ccnc2c1 too.
3.2 µM

Now the same for C[C@@H]1CC[C@@H]2[C@@H]1[C@H](OC(=O)c1ccc3ccccc3c1)[C@]1(C3CCCCC3)C[C@@H](OC(=O)CO)[C@@]2(C)O1
15.1 µM

What about this compound? CNC(C)[C@H]1CCC2C3CCC4C[C@@H](N(C)C(=O)c5ccccc5)CC[C@]4(C)C3CC[C@@]21C (stereo not given in full)
4.26 µM

Now consider CCNC1=C(NC(=O)c2ccc(OC)cc2)C(=O)c2ccccc2C1=O .
> 100 µM

Moving on to O=C(c1ccccc1)c1ccc(O)c2ncccc12
15.3 µM

Can you check COc1cc(/C=C2\CC(C)C/C(=C\c3ccc(O)c(OC)c3)C2=O)ccc1O (stereo not given) next?
4.5 µM

Try this compound next: N/N=C(/CC(O)(C(F)(F)F)C(F)(F)F)c1ccccc1
> 10 µM

Query CCOC(=O)C(C)c1nc2cc(C(F)(F)F)ccc2[nH]c1=O (stereo not given) next
67.7 µM

Another: Cc1ccc(NC(=O)N2CCCCC2)cc1[N+](=O)[O-]
> 100 µM

Also O=C1OC(C2Cc3ccc4c(c3C2=O)CCCC4)c2ccccc21 (stereo not given) ?
> 100 µM

What about COc1cc2oc(-c3cccc(C(=O)Nc4ccc(C)cc4)c3)cc(=O)c2c(OC)c1OC ?
> 100 µM

Also NC(=S)N/N=C/c1ccc(OC(=O)COc2ccccc2)cn1 ?
> 100 µM

// query: O=C(c1ccc(Cl)c(Cl)c1)N(C(=O)N1CCN(c2ccccc2)CC1)S(=O)(=O)c1ccccc1
> 100 µM

Queued: COc1ccccc1Nc1nc2ccccc2c2occc12
> 50 µM

Follow-up entry: Cc1ccc(/C=C2\CCCCCC2=O)cc1
> 100 µM

And Clc1ccc(-c2nc(C(Cl)Cl)nc3cc(-c4ccccc4)nn23)cc1 ?
> 50 µM

Input COc1ccc2oc(=O)c(-c3csc(-c4ccccc4)n3)cc2c1
> 100 µM

What do you have for Cc1ccc(S(=O)(=O)NC(=O)NCC(N)=O)cc1 ?
> 100 µM

Further, for COC1=CC(=O)c2c(n[nH]c2CCNC(=O)OCc2ccccc2)C1=O ?
18.3 µM

Now this one: COC(=O)C1Cc2c([nH]c3ccccc23)-c2[nH]c3ccccc3c2CC(NC(C)=O)C(=O)NCC(=O)NCC(=O)N1 (stereo not given)
> 100 µM

Lookup CC(=O)OC1CC2(O)C(CCC3(C)C(c4ccc(=O)oc4)CCC32O)C2(C)CCC(OC3OC(CO)C(O)C(O)C3O)C=C12 (stereo not given)
0.837 µM

Next up: N#CCN1CCN(CC#N)CCN(CC#N)CCN(CC#N)CC1
> 100 µM

Cc1c(-c2ccccc2)c(C#N)c2nnn(C)c(=O)n12 , same question.
> 100 µM
